study-system: T1, human β NGF (human, UniProt P01138 122-241, biotinylated in the TrkA inhibition ELISA (sites not given))
T1 construct: Bought (R&D Systems 256-GF/CF); also called Human NGF; biotinylated human NGF
T1 sequence (P01138 122-241 limits assumed): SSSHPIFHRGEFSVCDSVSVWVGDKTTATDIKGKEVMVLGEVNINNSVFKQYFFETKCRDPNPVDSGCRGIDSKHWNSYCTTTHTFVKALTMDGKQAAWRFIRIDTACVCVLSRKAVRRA
measurement-protocol: TrkA inhibition ELISA; biotin-hNGF bound to rat TrkA/Fc; supernatant 1-fold
readout: absorbance at 450 nm (OD450)
Quick reminder: number only, in OD450, skip the unit.

Reference set (5 entries):
binder	unit-spec	absorbance at 450 nm
21D4 hybridoma supernatant (antibody, mouse IgG1, V domains shown, Tested as supernatant of the hybridoma before subcloning; mouse IgG1 kappa; also called ML129-21D4.4A11) VH: EVQLQQSGAELVKPGASVKLSCTASGFNIKDTYIYWVKQRPEQGLEWIGRIDPANGNTIYASKFQGKASITADTSSNTAYMQLSSLTSGDTAVYYCAGYGYYAYWGQGTTLTVSS VL: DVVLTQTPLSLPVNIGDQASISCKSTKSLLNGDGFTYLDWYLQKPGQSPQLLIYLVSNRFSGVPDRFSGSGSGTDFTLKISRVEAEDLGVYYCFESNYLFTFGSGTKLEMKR	OD450	0.133
14A9 hybridoma supernatant (antibody, mouse IgG1, V domains shown, Tested as supernatant of the hybridoma before subcloning; mouse IgG1 kappa; also called ML130-14A9.5B12) VH: EVQLVESGGGAVKPGGSLTLSCAASGFTFSNHYMYWVRQTPEKRLEWVASISDGGAYTFYPDTVKGRFTISRDNVNNNLYLQMRHLKSEDTAMYYCTREESANNGFAFWGQGTLVTVSA VL: DVLMTQTPLSLPVSLGDQASISCRSSQSILHSNGNTYLEWYLQKPGQSPNLLIYRVSNRFSGVPDRFSGSGSGTDFTLKISRVEAEDLGVYYCFQGAHVPFTFGSGTKLEIKR	OD450	0.121
20B10 hybridoma supernatant (antibody, mouse IgG2b, V domains shown, Tested as supernatant of the hybridoma before subcloning; mouse IgG2b kappa; also called ML129-20B10.3F4) VH: EVHLVESGGGLVKPGGFLILSCAASGFTFSDYYMFWIRQTPGKRLEWVATISDGGSYTYYTDNVKGRFTISRDNVKNNLYLQMSHLKSADTAMYYCARDWSDSEGFAYWGQGTLVTVSA VL: DVLMTQTPLSLPVSLGDQASISCRSSQSIVQSNGNTYLEWYLQKPGQSPKLLIYKVSNRFSGVPDRFSGSGSGTDFTLKISRVEAEDLGVYYCFQGSHVPFTFGSGTKLEIKR	OD450	0.166
3F7 hybridoma supernatant (antibody, mouse IgG1, V domains shown, Tested as supernatant of the hybridoma before subcloning; mouse IgG1 kappa; also called ML130-3F7.4A8) VH: QVQLKESGPGLVAPSQSLSITCTVSGFSLTGYNINWVRQPPGKGLEWLGMIWGYGDTDYNSALKSRLSISKDNSKSQVFLKMNSLQTDDTARYYCARDHYGGNDWYFDVWGTGTTVTVSS VL: DIQMTQTTSSLSASLGDRVTITCRASQDITNYLNWYQQKPDGTVKLLIYYTSRLHSGVPSRFSGSGSGTDYSLTISNLDQEDIATYFCQQGKTLPRTFGGGTKLEIKR	OD450	0.056
2B12 hybridoma supernatant (antibody, mouse IgG2b, V domains shown, Tested as supernatant of the hybridoma before subcloning; mouse IgG2b kappa; also called ML129-2B12.5G9) VH: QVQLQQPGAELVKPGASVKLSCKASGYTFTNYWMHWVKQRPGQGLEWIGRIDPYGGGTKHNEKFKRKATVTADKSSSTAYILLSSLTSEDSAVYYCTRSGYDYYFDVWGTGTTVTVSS VL: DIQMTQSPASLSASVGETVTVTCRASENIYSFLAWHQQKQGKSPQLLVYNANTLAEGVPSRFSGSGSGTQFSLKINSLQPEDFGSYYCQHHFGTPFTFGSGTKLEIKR	OD450	0.065

Next up:
According to the records, this binder 23F1 hybridoma supernatant (antibody, mouse IgG1, V domains shown, Tested as supernatant of the hybridoma before subcloning; mouse IgG1 kappa; also called ML129-23F1.4G3) VH: EVQLQQSGAELVKPGASVKLSCTASGFNIKDTYIYWVKQRPEQGLEWIGRIDPANGNTIYASKFQGKATITADTSSNTAYMQLSSLTSGDTAVYYCAGYGYYAYWGQGTTLTVSS VL: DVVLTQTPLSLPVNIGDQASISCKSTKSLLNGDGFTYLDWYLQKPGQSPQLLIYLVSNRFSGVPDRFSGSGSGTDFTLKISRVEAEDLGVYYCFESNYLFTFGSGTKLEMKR displays absorbance at 450 nm of 0.108
